- ASSAYED SYSTEM: Leucine-rich repeat serine/threonine-protein kinase 2 (Homo sapiens, UniProt Q5S007, G2019S)
- Sequence (Q5S007 whole entry G2019S): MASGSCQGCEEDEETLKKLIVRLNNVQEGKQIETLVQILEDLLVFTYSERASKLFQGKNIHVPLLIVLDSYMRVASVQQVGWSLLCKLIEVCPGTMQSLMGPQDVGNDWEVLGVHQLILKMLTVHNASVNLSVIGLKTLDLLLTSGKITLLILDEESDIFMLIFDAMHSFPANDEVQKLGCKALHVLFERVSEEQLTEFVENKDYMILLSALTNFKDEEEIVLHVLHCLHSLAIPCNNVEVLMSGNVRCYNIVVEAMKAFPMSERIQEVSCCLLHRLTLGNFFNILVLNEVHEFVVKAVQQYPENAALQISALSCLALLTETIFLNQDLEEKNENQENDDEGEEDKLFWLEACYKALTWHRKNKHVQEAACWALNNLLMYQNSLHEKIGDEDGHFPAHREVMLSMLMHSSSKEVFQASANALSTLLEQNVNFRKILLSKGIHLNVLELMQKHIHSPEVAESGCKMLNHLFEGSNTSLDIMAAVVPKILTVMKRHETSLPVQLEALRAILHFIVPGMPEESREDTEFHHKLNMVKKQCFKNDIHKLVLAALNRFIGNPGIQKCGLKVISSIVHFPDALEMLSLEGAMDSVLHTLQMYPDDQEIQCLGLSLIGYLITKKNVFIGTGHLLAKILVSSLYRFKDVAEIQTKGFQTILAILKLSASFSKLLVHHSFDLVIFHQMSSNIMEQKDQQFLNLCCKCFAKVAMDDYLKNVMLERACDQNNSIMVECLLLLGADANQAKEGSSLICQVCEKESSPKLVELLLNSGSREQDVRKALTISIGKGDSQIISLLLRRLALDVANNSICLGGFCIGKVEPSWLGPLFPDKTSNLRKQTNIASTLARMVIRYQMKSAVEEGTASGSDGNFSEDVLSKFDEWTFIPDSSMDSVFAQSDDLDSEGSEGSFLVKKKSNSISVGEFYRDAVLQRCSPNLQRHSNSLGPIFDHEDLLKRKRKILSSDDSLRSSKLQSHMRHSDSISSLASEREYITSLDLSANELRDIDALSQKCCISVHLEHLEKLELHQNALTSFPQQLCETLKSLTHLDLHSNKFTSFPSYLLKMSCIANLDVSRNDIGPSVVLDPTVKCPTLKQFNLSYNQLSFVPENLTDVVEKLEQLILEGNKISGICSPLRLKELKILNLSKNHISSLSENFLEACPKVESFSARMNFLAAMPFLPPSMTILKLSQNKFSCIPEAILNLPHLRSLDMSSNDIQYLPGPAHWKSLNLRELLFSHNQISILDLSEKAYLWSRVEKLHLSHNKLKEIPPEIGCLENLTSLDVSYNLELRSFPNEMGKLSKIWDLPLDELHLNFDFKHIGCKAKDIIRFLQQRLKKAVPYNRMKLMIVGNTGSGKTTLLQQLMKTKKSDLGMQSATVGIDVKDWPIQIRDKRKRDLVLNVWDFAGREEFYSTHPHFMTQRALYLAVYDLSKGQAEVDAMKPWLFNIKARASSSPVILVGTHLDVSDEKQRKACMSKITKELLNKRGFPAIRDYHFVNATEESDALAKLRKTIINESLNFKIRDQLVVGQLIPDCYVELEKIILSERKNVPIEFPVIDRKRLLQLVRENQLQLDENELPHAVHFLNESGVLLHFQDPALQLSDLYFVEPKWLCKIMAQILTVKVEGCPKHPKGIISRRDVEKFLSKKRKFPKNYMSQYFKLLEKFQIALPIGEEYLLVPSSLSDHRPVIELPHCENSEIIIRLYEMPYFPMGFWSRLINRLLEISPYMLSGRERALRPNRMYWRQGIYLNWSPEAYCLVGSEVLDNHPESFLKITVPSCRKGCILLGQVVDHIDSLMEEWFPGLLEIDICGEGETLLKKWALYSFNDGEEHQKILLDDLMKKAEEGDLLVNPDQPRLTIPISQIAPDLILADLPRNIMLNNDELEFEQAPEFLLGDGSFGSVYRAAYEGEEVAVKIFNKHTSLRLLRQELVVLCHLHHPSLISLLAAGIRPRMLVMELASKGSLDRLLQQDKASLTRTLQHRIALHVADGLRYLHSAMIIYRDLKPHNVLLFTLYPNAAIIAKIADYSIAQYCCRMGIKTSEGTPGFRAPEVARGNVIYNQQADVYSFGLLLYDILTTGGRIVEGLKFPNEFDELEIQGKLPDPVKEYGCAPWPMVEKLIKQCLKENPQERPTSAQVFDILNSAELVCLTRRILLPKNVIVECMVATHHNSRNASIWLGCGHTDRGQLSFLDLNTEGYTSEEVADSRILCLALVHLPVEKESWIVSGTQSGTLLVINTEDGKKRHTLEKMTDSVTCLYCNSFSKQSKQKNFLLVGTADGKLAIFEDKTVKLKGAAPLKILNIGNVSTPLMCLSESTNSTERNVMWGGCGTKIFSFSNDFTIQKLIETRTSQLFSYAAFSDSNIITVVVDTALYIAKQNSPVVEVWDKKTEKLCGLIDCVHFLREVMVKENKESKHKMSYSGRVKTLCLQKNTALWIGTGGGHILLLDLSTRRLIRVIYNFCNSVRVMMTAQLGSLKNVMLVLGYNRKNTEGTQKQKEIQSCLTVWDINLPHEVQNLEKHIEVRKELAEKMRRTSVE
- EXPERIMENT DESCRIPTION: Inhibition of LRRK2 G2019S mutant (unknown origin)
MEASURE: IC50 (nM)
Write down the numeric answer in nM and omit the unit.

Query :: Sample COc1ccc2c(c1)OCC(C(=O)NC(=O)N(CC(=O)NCCCCCCNC(=O)c1ccc(-c3n[nH]c4ccccc34)cc1)CC(C)C)O2 (stereo unspecified) — what was its IC50?
Result :: 99

----------
- ASSAYED SYSTEM: Mitogen-activated protein kinase 9 (Homo sapiens)
- Sequence (P45984 whole entry): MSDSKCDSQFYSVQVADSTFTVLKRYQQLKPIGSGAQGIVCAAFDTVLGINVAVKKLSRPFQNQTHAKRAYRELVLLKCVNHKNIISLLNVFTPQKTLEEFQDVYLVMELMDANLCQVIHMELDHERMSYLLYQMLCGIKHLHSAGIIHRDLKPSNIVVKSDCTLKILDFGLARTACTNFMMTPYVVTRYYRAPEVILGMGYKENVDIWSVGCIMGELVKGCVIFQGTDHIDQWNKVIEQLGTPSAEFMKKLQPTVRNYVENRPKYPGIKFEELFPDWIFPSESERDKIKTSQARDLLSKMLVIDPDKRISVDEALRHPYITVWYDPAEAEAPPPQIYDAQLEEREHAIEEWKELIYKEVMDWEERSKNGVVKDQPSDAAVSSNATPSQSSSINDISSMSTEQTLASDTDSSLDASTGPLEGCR
- EXPERIMENT DESCRIPTION: Inhibition of JNK2 (unknown origin) by JIP-FP displacement assay
MEASURE: IC50 (nM)
Please reply with the bare figure in nM and do not write the unit itself.

Query :: I would be grateful if you could share the reported IC50 for COc1ccc2c(c1)OCC(C(=O)NC(=O)N(CC(=O)NCCCCCCNC(=O)c1ccc(-c3n[nH]c4ccccc34)cc1)CC(C)C)O2 (stereo unspecified) .
Result :: 336
